- Test system: rumen inoculum
- assay.info: Rumen in vitro model
- Set-up: species or system steer
- condition.info: 5 ppm
assay.metric: IVA (% OF CONTROL)
Value expressed in % OF CONTROL; do not type the unit.

Let me know recorded IVA for CN[C@H]1C(=O)N[C@H]2C(=O)N[C@H](C(=O)N[C@H]3C(=O)N[C@H]4C(=O)N[C@H](C(=O)N[C@H](C(=O)O)c5cc(O)cc(O[C@H]6O[C@H](CO)[C@@H](O)[C@H](O)[C@@H]6O)c5-c5cc4ccc5O)[C@H](O)c4cc(Cl)c(c(Cl)c4)Oc4cc3cc(c4O[C@@H]3O[C@H](C(=O)O)[C@@H](O)[C@H](O)[C@H]3NC(=O)CCCCCCCCC(C)C)Oc3ccc(cc3Cl)[C@H]2O)c2cc(cc(O)c2Cl)Oc2cc1ccc2O , thanks.
158

Let me know recorded IVA for CC[C@@]1([C@H]2O[C@H]([C@H]3O[C@@](O)(CO)[C@H](C)C[C@@H]3C)C[C@H]2C)CC[C@H]([C@@]2(C)CC[C@]3(C[C@H](O)[C@@H](C)[C@@H]([C@H](C)[C@H](OC)[C@@H](C)C(=O)O)O3)O2)O1 [Monensin Sodium] , thanks.
265

Let me know recorded IVA for CCCCCCCCCC(=O)N[C@H]1[C@H](Oc2c3cc4cc2Oc2c(Cl)cc(cc2Cl)[C@@H](O)[C@@H]2NC(=O)[C@H](NC(=O)[C@@H]4NC(=O)[C@H]4NC(=O)[C@H](NC(=O)[C@H](NC)c5ccc(O)c(c5)Oc5cc(O)c(Cl)c4c5)[C@H](O)c4ccc(c(Cl)c4)O3)c3ccc(O)c(c3)-c3c(O[C@H]4O[C@H](CO)[C@@H](O)[C@H](O)[C@@H]4O)cc(O)cc3[C@@H](C(=O)O)NC2=O)O[C@H](C(=O)O)[C@@H](O)[C@@H]1O [AAD 216A] , thanks.
165

Let me know recorded IVA for CN[C@H]1C(=O)N[C@H]2C(=O)N[C@H](C(=O)N[C@H]3C(=O)N[C@H]4C(=O)N[C@H](C(=O)N[C@H](C(=O)O)c5cc(O)cc(O[C@H]6O[C@H](CO)[C@@H](O)[C@H](O)[C@@H]6O)c5-c5cc4ccc5O)[C@H](O)c4cc(Cl)c(c(Cl)c4)Oc4cc3cc(c4O[C@@H]3O[C@H](C(=O)O)[C@@H](O)[C@H](O)[C@H]3NC(=O)CCCCCCCC(C)C)Oc3ccc(cc3Cl)[C@H]2O)c2cc(cc(O)c2Cl)Oc2cc1ccc2O [AAD 216B] , thanks.
120
